# Measured Target: RARα (Homo sapiens)
# Construct: gal4 (fusion partner); expressed in transfected cells; host or cells: COS-7
# Sequence (P10276 183-417 limits assumed): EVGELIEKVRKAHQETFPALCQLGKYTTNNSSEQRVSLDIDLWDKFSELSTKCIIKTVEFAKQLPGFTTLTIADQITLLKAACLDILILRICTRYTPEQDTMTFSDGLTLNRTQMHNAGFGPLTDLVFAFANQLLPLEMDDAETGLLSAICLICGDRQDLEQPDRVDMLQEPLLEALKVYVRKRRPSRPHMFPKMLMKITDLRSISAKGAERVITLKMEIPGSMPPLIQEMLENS
# Method Summary: Transactivation assay for RAR alpha (gal4-RAR fusion, luciferase reporter, COS-7 cells)
# Type: cell-based
# Experimental Parameters: ratio of test compound EC50 to that of atRA on the same plate
Metric Name: RARα activity ratio

# example entries with known answers
[
  {
    "Compound": "CCOc1c(Cl)cc(C(=O)Nc2ccc(C(=O)O)c(F)c2)cc1C(F)(F)F [AAA-068]",
    "Measured Target": "RARα (Homo sapiens)",
    "RARα activity ratio": 7
  },
  {
    "Compound": "CCOc1c(Cl)cc(C(=O)Nc2ccc(C(=O)O)c(C)c2)cc1OC1CCC1 [AAA-096]",
    "Measured Target": "RARα (Homo sapiens)",
    "RARα activity ratio": 3.2
  },
  {
    "Compound": "CCOc1c(Cl)cc(C(=O)Nc2ccc(C(=O)O)nc2)cc1Cl [AAA-026]",
    "Measured Target": "RARα (Homo sapiens)",
    "RARα activity ratio": 180
  }
]

a = CCOc1cc(C(=O)Nc2ccc(C(=O)O)cc2)cc(OCC)c1Br [AAA-106]
b = COc1c(Cl)cc(C(=O)Nc2ccc(C(=O)O)c(C)c2)cc1C(F)(F)F [AAA-041]
c = O=C(O)c1ccc(NC(=O)c2cc(Cl)c(OCc3ccncc3)c(Cl)c2)cc1 [AAA-012]
d = CCOc1c(Cl)cc(C(=O)Nc2ccc(C(=O)O)c(C)c2)cc1OC(C)C [AAA-080]
Returns the items ordered by RARα activity ratio, from maximum to minimum. # respond with the labels, arranged in the requested order
c, a, b, d

###

# Measured Target: RARα (Homo sapiens)
# Construct: gal4 (fusion partner); expressed in transfected cells; host or cells: COS-7
# Method Summary: Transactivation assay for RAR alpha (gal4-RAR fusion, luciferase reporter, COS-7 cells)
# Format: cell-based
# Experimental Parameters: ratio of test compound EC50 to that of atRA on the same plate
Metric Name: RARα activity ratio

[
  {
    "Smiles": "COc1cc(C(=O)Nc2ccc(C(=O)O)cc2)cc(OC(C)C)c1Cl",
    "RARα activity ratio": 36
  }
]

P = O=C(O)c1ccc(NC(=O)c2cc(Cl)c(OC3CCCC3)c(OC3CCCC3)c2)cc1
Q = CCOc1c(Cl)cc(NC(=O)c2ccc(C(=O)O)cn2)cc1Cl
R = COC(=O)c1ccc(NC(=O)c2cc(Cl)c(OC3CCCC3)c(Cl)c2)cc1
S = CCOc1c(Cl)cc(C(=O)Nc2ccc(C(=O)O)cn2)cc1Cl
Ordering: ascending RARα activity ratio. Give the order by naming the labels one after another as requested.
P, R, Q, S
